Tested on: 817829-284-R-J1-PDC spheroids with HUVEC/MSC, viability
Test: Anticancer human tumor 817829-284-R-J1-PDC patient-derived colon adenocarcinoma cell line growth inhibition [TAK]
Conditions: curve of first compound; second compound 3 µM
pIC50: −log10 of the molar value.

COMPOUND	pIC50
CC(C)CC(NC(=O)C(Cc1ccccc1)NC(=O)c1cnccn1)B(O)O (stereo not given) + CC(C)NCC(C(=O)N1CCN(c2ncnc3c2C(C)CC3O)CC1)c1ccc(Cl)cc1	> 10.50
COC1CC2CCC(C)C(O)(O2)C(=O)C(=O)N2CCCCC2C(=O)OC(C(C)CC2CCC(OCCO)C(OC)C2)CC(=O)C(C)C=C(C)C(O)C(OC)C(=O)C(C)CC(C)C=CC=CC=C1C (stereo not given) + CC(C)NCC(C(=O)N1CCN(c2ncnc3c2C(C)CC3O)CC1)c1ccc(Cl)cc1	> 9.50
CC(=O)Nc1cccc(-n2c(=O)n(C3CC3)c(=O)c3c(Nc4ccc(I)cc4F)n(C)c(=O)c(C)c32)c1 + CC(C)NCC(C(=O)N1CCN(c2ncnc3c2C(C)CC3O)CC1)c1ccc(Cl)cc1	> 10.02
CC(C)n1nc(-c2ccc3oc(N)nc3c2)c2c(N)ncnc21 + CC(C)NCC(C(=O)N1CCN(c2ncnc3c2C(C)CC3O)CC1)c1ccc(Cl)cc1	> 9.50
CC(C)CC(NC(=O)CNC(=O)c1cc(Cl)ccc1Cl)B1OC(=O)CC(CC(=O)O)(C(=O)O)O1 (stereo not given) + CC(C)NCC(C(=O)N1CCN(c2ncnc3c2C(C)CC3O)CC1)c1ccc(Cl)cc1	> 9.50

====

System: 817829-284-R-J1-PDC spheroids with HUVEC/MSC, viability
Test: Anticancer human tumor 817829-284-R-J1-PDC cell line growth inhibition [TAK]
Conditions: curve of compound
pIC50: −log10 of the molar value.

MOLECULE	pIC50
COC1CC2CCC(C)C(O)(O2)C(=O)C(=O)N2CCCCC2C(=O)OC(C(C)CC2CCC(OCCO)C(OC)C2)CC(=O)C(C)C=C(C)C(O)C(OC)C(=O)C(C)CC(C)C=CC=CC=C1C (stereo unspecified)	< 7.00

====

Tested on: 817829-284-R-J1-PDC spheroids with HUVEC/MSC, viability
Experiment: Anticancer human tumor 817829-284-R-J1-PDC cell line growth inhibition [TAK]
Settings: second compound 9.49 µM; first compound 0.316 µM; stronger effect = lower value
Experimental: Combinatorial screen of targeted agents with TAK-243 and ipatasertib in multi-cell type tumor spheroids […] Compounds. […] If the clinical Cmax for an agent had not been determined, the highest concentration tested was 10 microM. NCI60 Cell Culture. […] The optimal seeding densities for each of the cell lines at each time point assessed were determined prior to performing the concentration response studies. […]
Catalogue of viability, T/C values

COMPOUND	viability, T/C / %
CC(C)(C)c1nc(-c2cccc(NS(=O)(=O)c3c(F)cccc3F)c2F)c(-c2ccnc(N)n2)s1 + CC(C)NCC(C(=O)N1CCN(c2ncnc3c2C(C)CC3O)CC1)c1ccc(Cl)cc1	9.8
Cc1nc(NC(=O)N2CCCC2C(N)=O)sc1-c1ccnc(C(C)(C)C(F)(F)F)c1 (centres undefined) + CC(C)NCC(C(=O)N1CCN(c2ncnc3c2C(C)CC3O)CC1)c1ccc(Cl)cc1	8.57
COc1c(OCCCN2CCOCC2)ccc2c3n(c(=NC(=O)c4cnc(N)nc4)nc12)CCN3 + CC(C)NCC(C(=O)N1CCN(c2ncnc3c2C(C)CC3O)CC1)c1ccc(Cl)cc1	1.13
CCCS(=O)(=O)Nc1ccc(F)c(C(=O)c2c[nH]c3ncc(-c4ccc(Cl)cc4)cc23)c1F + CC(C)NCC(C(=O)N1CCN(c2ncnc3c2C(C)CC3O)CC1)c1ccc(Cl)cc1	9.5

====

Tested on: 817829-284-R-J1-PDC spheroids with HUVEC/MSC, viability
Assay: Anticancer human tumor 817829-284-R-J1-PDC cell line growth inhibition [TAK]
Conditions: second compound 30 µM; first compound 0.1 µM; stronger effect = lower value
READOUT NAME: viability, T/C (%)

COMPOUND	QUANTITATIVE RESULT
COC1CC2CCC(C)C(O)(O2)C(=O)C(=O)N2CCCCC2C(=O)OC(C(C)CC2CCC(OCCO)C(OC)C2)CC(=O)C(C)C=C(C)C(O)C(OC)C(=O)C(C)CC(C)C=CC=CC=C1C (stereo not drawn) + CC(C)NCC(C(=O)N1CCN(c2ncnc3c2C(C)CC3O)CC1)c1ccc(Cl)cc1	6.34
Cc1nc(NC(=O)N2CCCC2C(N)=O)sc1-c1ccnc(C(C)(C)C(F)(F)F)c1 (stereo not drawn) + CC(C)NCC(C(=O)N1CCN(c2ncnc3c2C(C)CC3O)CC1)c1ccc(Cl)cc1	6.06
CC(C)CC(NC(=O)CNC(=O)c1cc(Cl)ccc1Cl)B1OC(=O)CC(CC(=O)O)(C(=O)O)O1 (stereo not drawn) + CC(C)NCC(C(=O)N1CCN(c2ncnc3c2C(C)CC3O)CC1)c1ccc(Cl)cc1	0.32

====

Tested on: 817829-284-R-J1-PDC spheroids with HUVEC/MSC, viability
Test: Anticancer human tumor 817829-284-R-J1-PDC cell line growth inhibition [TAK]; active = viability on the fitted dose curve at most 10% of control; inactive = the rest
Conditions: second compound 3 µM; first compound 0.0316 µM
Classes used: TRUE for active, FALSE for inactive

MOLECULE	CLASS NAME
Cc1nc(NC(=O)N2CCCC2C(N)=O)sc1-c1ccnc(C(C)(C)C(F)(F)F)c1 (stereo unspecified) + CC(C)NCC(C(=O)N1CCN(c2ncnc3c2C(C)CC3O)CC1)c1ccc(Cl)cc1	FALSE
COC1CC2CCC(C)C(O)(O2)C(=O)C(=O)N2CCCCC2C(=O)OC(C(C)CC2CCC(OCCO)C(OC)C2)CC(=O)C(C)C=C(C)C(O)C(OC)C(=O)C(C)CC(C)C=CC=CC=C1C (stereo unspecified) + CC(C)NCC(C(=O)N1CCN(c2ncnc3c2C(C)CC3O)CC1)c1ccc(Cl)cc1	FALSE
CC(C)(C)c1nc(-c2cccc(NS(=O)(=O)c3c(F)cccc3F)c2F)c(-c2ccnc(N)n2)s1 + CC(C)NCC(C(=O)N1CCN(c2ncnc3c2C(C)CC3O)CC1)c1ccc(Cl)cc1	FALSE
CC(C)CC(NC(=O)CNC(=O)c1cc(Cl)ccc1Cl)B1OC(=O)CC(CC(=O)O)(C(=O)O)O1 (stereo unspecified) + CC(C)NCC(C(=O)N1CCN(c2ncnc3c2C(C)CC3O)CC1)c1ccc(Cl)cc1	TRUE
CC(C)n1nc(-c2ccc3oc(N)nc3c2)c2c(N)ncnc21 + CC(C)NCC(C(=O)N1CCN(c2ncnc3c2C(C)CC3O)CC1)c1ccc(Cl)cc1	TRUE
COc1c(OCCCN2CCOCC2)ccc2c3n(c(=NC(=O)c4cnc(N)nc4)nc12)CCN3 + CC(C)NCC(C(=O)N1CCN(c2ncnc3c2C(C)CC3O)CC1)c1ccc(Cl)cc1	TRUE

====

System: 817829-284-R-J1-PDC spheroids with HUVEC/MSC, viability
Assay: Anticancer human tumor 817829-284-R-J1-PDC cell line growth inhibition [TAK]
Conditions: second compound 30 µM; first compound 0.1 µM; stronger effect = lower value
READOUT NAME: viability, T/C (%)

COMPOUND	TEST TARGET	UNITS	QUANTITATIVE RESULT
CC(C)(C)c1nc(-c2cccc(NS(=O)(=O)c3c(F)cccc3F)c2F)c(-c2ccnc(N)n2)s1 + CC(C)NCC(C(=O)N1CCN(c2ncnc3c2C(C)CC3O)CC1)c1ccc(Cl)cc1	817829-284-R-J1-PDC spheroids with HUVEC/MSC, viability	%	5.14
CC(C)n1nc(-c2ccc3oc(N)nc3c2)c2c(N)ncnc21 + CC(C)NCC(C(=O)N1CCN(c2ncnc3c2C(C)CC3O)CC1)c1ccc(Cl)cc1	817829-284-R-J1-PDC spheroids with HUVEC/MSC, viability	%	3.29
COc1c(OCCCN2CCOCC2)ccc2c3n(c(=NC(=O)c4cnc(N)nc4)nc12)CCN3 + CC(C)NCC(C(=O)N1CCN(c2ncnc3c2C(C)CC3O)CC1)c1ccc(Cl)cc1	817829-284-R-J1-PDC spheroids with HUVEC/MSC, viability	%	1.05

====

Catalogue of viability, T/C values
System: 817829-284-R-J1-PDC spheroids with HUVEC/MSC, viability
Assay: Anticancer human tumor 817829-284-R-J1-PDC cell line growth inhibition [TAK]
Settings: second compound 9.49 µM; first compound 1 µM; stronger effect = lower value

COMPOUND	TEST TARGET	viability, T/C, %
COc1c(OCCCN2CCOCC2)ccc2c3n(c(=NC(=O)c4cnc(N)nc4)nc12)CCN3 + CC(C)NCC(C(=O)N1CCN(c2ncnc3c2C(C)CC3O)CC1)c1ccc(Cl)cc1	817829-284-R-J1-PDC spheroids with HUVEC/MSC, viability	1.28
CCCS(=O)(=O)Nc1ccc(F)c(C(=O)c2c[nH]c3ncc(-c4ccc(Cl)cc4)cc23)c1F + CC(C)NCC(C(=O)N1CCN(c2ncnc3c2C(C)CC3O)CC1)c1ccc(Cl)cc1	817829-284-R-J1-PDC spheroids with HUVEC/MSC, viability	7.83
CC(C)(C)c1nc(-c2cccc(NS(=O)(=O)c3c(F)cccc3F)c2F)c(-c2ccnc(N)n2)s1 + CC(C)NCC(C(=O)N1CCN(c2ncnc3c2C(C)CC3O)CC1)c1ccc(Cl)cc1	817829-284-R-J1-PDC spheroids with HUVEC/MSC, viability	7.09
Cc1nc(NC(=O)N2CCCC2C(N)=O)sc1-c1ccnc(C(C)(C)C(F)(F)F)c1 (centres undefined) + CC(C)NCC(C(=O)N1CCN(c2ncnc3c2C(C)CC3O)CC1)c1ccc(Cl)cc1	817829-284-R-J1-PDC spheroids with HUVEC/MSC, viability	5.76
